Listed below: growth inhibition by drug plus 177Lu-lilotomab satetraxetan values for each entry.
Tested on: RIVA
assay-explanation: growth inhibition by drug plus 177Lu-lilotomab satetraxetan (1 - RLU/untreated control) (fraction); higher = stronger inhibition
condition-label: 10 nM; time (day): 5; 177Lu-lilotomab satetraxetan 0.5 ug/ml
Answer with a number only.

Examples with answers:
{"columns": ["molecule", "tested-target", "reported-result"],
 "data": [
  ["CNC(=O)c1cc(Oc2ccc(NC(=O)Nc3ccc(Cl)c(C(F)(F)F)c3)cc2)ccn1", "RIVA", 0.498],
  ["Cc1cnc(NC(=O)Nc2cc(Br)c(C)cc2OC[C@@H]2CNCCO2)cn1", "RIVA", 0.56],
  ["Cn1cnc([N+](=O)[O-])c1Sc1ncnc2[nH]cnc12", "RIVA", 0.565]
]}

Kindly consider the entry below.
Q. Given COc1c(C)c2c(c(O)c1C/C=C(\C)CCC(=O)O)C(=O)OC2 [Mycophenolic (Mycophenolate)] , respond with its growth inhibition by drug plus 177Lu-lilotomab satetraxetan.
A. 0.625

* * *

Listed below: growth inhibition by drug plus 177Lu-lilotomab satetraxetan values for each entry.
Tested on: U-2932
assay-explanation: growth inhibition by drug plus 177Lu-lilotomab satetraxetan (1 - RLU/untreated control) (fraction); higher = stronger inhibition
condition-label: 1000 nM; time (day): 4; 177Lu-lilotomab satetraxetan 1 ug/ml
Answer with a number only.

{"columns": ["molecule", "tested-target", "reported-result"],
 "data": [
  ["CC(C)C[C@@H](C(=O)N[C@H](C(=O)OC1CCCC1)c1ccccc1)[C@H](O)C(=O)NO", "U-2932", -0.0223],
  ["Cn1cnc([N+](=O)[O-])c1Sc1ncnc2[nH]cnc12", "U-2932", 0.0766],
  ["Cc1ccc(-c2csc3ncnc(SCCC(=O)O)c23)cc1", "U-2932", 0.018],
  ["C=CC[C@@H]1/C=C(\\C)C[C@H](C)C[C@H](OC)[C@H]2O[C@@](O)(C(=O)C(=O)N3CCCC[C@H]3C(=O)O[C@H](/C(C)=C/[C@@H]3CC[C@@H](O)[C@H](OC)C3)[C@H](C)[C@@H](O)CC1=O)[C@H](C)C[C@@H]2OC", "U-2932", 0.367],
  ["CN(C)C/C=C/C(=O)Nc1cc2c(Nc3ccc(F)c(Cl)c3)ncnc2cc1O[C@H]1CCOC1", "U-2932", 0.0652],
  ["CCC(C)n1ncn(-c2ccc(N3CCN(c4ccc(OCC5COC(Cn6cncn6)(c6ccc(Cl)cc6Cl)O5)cc4)CC3)cc2)c1=O (configuration not stated) [Itraconazole (Sporanox)]", "U-2932", 0.147]
]}

Kindly consider the entry below.
Q. Given `COc1cc2ncnc(Nc3ccc(F)c(Cl)c3)c2cc1NC(=O)/C=C/CN1CCCCC1` , respond with its growth inhibition by drug plus 177Lu-lilotomab satetraxetan.
A. -0.16

* * *

Listed below: growth inhibition by drug alone values for each entry.
Tested on: U-2932
assay-explanation: growth inhibition by drug alone (1 - RLU/untreated control) (fraction); higher = stronger inhibition
condition-label: 10 nM; time (day): 5; 177Lu-lilotomab satetraxetan 0 ug/ml
Answer with a number only.

Examples with answers:
{"columns": ["molecule", "growth inhibition by drug alone"],
 "data": [
  ["O=C1CN2Cc3c(ccc(Cl)c3Cl)N=C2N1 [Anagrelide]", 0.0131],
  ["COc1ccc(C2CC(c3ccccc3)=NN2c2ccc(S(N)(=O)=O)cc2)cc1 (stereo not drawn)", -0.0412]
]}

Q. Given `CC(C)C[C@H](NC(=O)CNC(=O)c1cc(Cl)ccc1Cl)B(O)O` , respond with its growth inhibition by drug alone.
A. 0.0132

Q. Given CC[C@H](CO)Nc1nc(NCc2ccccc2)c2ncn(C(C)C)c2n1 [Roscovitine (Seliciclib, CYC202)] , respond with its growth inhibition by drug alone.
A. -0.0433

Q. Given `Cc1cnc(Nc2ccc(OCCN3CCCC3)cc2)nc1Nc1cccc(S(=O)(=O)NC(C)(C)C)c1` , respond with its growth inhibition by drug alone.
A. -0.0582

Q. Given `Nc1ccn([C@@H]2O[C@H](CO)[C@@H](O)[C@@H]2O)c(=O)n1` , respond with its growth inhibition by drug alone.
A. -0.0299

Q. Given `O=C(Nc1ncc([N+](=O)[O-])s1)c1ccc([N+](=O)[O-])c(Cl)c1` , respond with its growth inhibition by drug alone.
A. 0.00802

Q. Given CCC(C)n1ncn(-c2ccc(N3CCN(c4ccc(OCC5COC(Cn6cncn6)(c6ccc(Cl)cc6Cl)O5)cc4)CC3)cc2)c1=O (stereo not drawn) [Itraconazole (Sporanox)] , respond with its growth inhibition by drug alone.
A. 0.0582

Q. Given `Nc1nc2[nH]cc(CCc3ccc(C(=O)N[C@@H](CCC(=O)O)C(=O)O)cc3)c2c(=O)[nH]1` , respond with its growth inhibition by drug alone.
A. -0.0965

Q. Given `O=c1cc(N2CCOCC2)oc2c(-c3ccccc3)cccc12` , respond with its growth inhibition by drug alone.
A. -0.0145

Q. Given `Oc1ccc(Nc2nc(-c3ccc(Cl)cc3)cs2)cc1` , respond with its growth inhibition by drug alone.
A. -0.0308

Q. Given `Cc1ccnc(NS(=O)(=O)c2ccc(NC(=O)Nc3ccc(S(=O)(=O)Nc4nccc(C)n4)cc3)cc2)n1` , respond with its growth inhibition by drug alone.
A. -0.00245

Q. Given O=C(O)C(=O)O.[NH-]C1CCCCC1[NH-].[Pt+2] (stereo not drawn) [Oxaliplatin (Eloxatin)] , respond with its growth inhibition by drug alone.
A. -0.0491

Q. Given `COC(=O)Nc1ccc(-c2nc(N3CCOCC3)c3cnn(C4CCN(C(=O)OC)CC4)c3n2)cc1` , respond with its growth inhibition by drug alone.
A. 0.0346

Where do these numbers come from? They come from the supplement of paper PMC6897291.
